In this section, each of the compounds is paired with its reported IC50.
Assay: Inhibitory activity (proliferation) against human peripheral blood mononuclear cells stimulated with Phytohemagglutininin-L
Type: functional
I only need the number, in µM, no unit after it.

Answered examples (3):
{"columns": ["COMPOUND", "IC50 / µM"],
 "data": [
  ["O=C(O)C1=C(C(=O)Nc2ccc(OCc3c(F)cccc3Cl)c(Cl)c2)COC1", 1],
  ["O=C(O)C1=C(C(=O)Nc2c(F)cc(-c3cccc(OC(F)(F)F)c3)cc2F)CCC1", 15],
  ["C/C(O)=C(\\C#N)C(=O)Nc1ccc(C(F)(F)F)cc1 [TERIFLUNOMIDE]", 108]
]}

Next compound, please.
For `COc1cccc(-c2ccc(NC(=O)C3=C(C(=O)O)CCC3)c(F)c2)c1` the compound record lists IC50 as 13
